Sourced from patent US20200361992A1

# tested_on: T1, human ferroportin (SLC40A1) fused with GFP, stably expressed in HEK293 cells (human, UniProt Q9NP59 1-571)
# T1 sequence (looked up): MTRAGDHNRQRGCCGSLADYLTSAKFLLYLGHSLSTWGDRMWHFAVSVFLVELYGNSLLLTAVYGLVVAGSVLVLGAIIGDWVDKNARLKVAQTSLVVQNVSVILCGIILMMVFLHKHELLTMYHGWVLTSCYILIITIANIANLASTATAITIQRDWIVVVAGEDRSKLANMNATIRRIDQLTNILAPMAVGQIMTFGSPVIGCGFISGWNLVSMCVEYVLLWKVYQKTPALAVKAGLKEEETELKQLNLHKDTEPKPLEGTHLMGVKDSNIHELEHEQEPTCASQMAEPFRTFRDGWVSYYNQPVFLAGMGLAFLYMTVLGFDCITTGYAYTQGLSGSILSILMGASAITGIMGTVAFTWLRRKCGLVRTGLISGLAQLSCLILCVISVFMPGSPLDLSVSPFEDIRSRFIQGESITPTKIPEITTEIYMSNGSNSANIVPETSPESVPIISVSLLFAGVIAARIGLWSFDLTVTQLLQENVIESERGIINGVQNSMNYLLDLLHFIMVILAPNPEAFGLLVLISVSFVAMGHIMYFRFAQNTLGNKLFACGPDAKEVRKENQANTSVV
# assay_text: cell-based or functional assay
Positions of bridges follow the written chain, without caps; N, C: chain ends. Non-standard residues stand in square brackets, D forms with d. Groups on a side chain read outwards from the residue. *: point of attachment. PEG12 = NCCOCCOCCOCCOCCOCCOCCOCCOCCOCCOCCOCCOCCC(=O)O; Phe(4-tBu) = CC(C)(C)c1ccc(C[C@H](N)C(=O)O)cc1; Dip = N[C@H](C(=O)O)C(c1ccccc1)c1ccccc1; Palmitoyl = CCCCCCCCCCCCCCCC(=O)*; β3hF = N[C@H](CC(=O)O)Cc1ccccc1; Isovaleryl = CC(C)CC(=O)*; Npc = nipecotic acid; βAla = NCCC(=O)O
Below, each entry is listed alongside its reported FPN IC50.
reported_property: FPN IC50 (nM)

> print(dat)
                                     binder  reported.property  unit.label  experimental.value
1  DTHFPCIKFKC (Isovaleric acid-DTHFPC(SH)I-[Lys]-[Phe]-Lys[PEG11-Palm]-C(SH)-NH2) [Compd ID 69]           FPN IC50          nM                   9
2  Isovaleryl-DTH[Dip]PCI[βAla][β3hF]K([PEG12-Palmitoyl])[dK]C-NH2 (disulfide 6-12 (inferred)) [Compd ID 145]           FPN IC50          nM                  18
3  Isovaleryl-DTH[Dip][Npc]CI[dK][Phe(4-tBu)]K([PEG12-Palmitoyl])KC-NH2 (disulfide 6-12 (inferred)) [Compd ID 110]           FPN IC50          nM                   3
4  DTHFPCIKFKKX (Isovaleric acid-DTH-F-PCI-[(D)Lys]-F-[Lys(Peg11-Palm)]-K-[a-MeCysl-NH2) [Compd ID 114]           FPN IC50          nM                   3
5  DTHXPCIKFKKC (Isovaleric acid-D-T-H-[Dpa]-P-C-I-[(D)Lys]-F-Lys[PEG11-Palm]-K-[Cys]-NH2) [Compd ID 104]           FPN IC50          nM                  27
6  DTHFPCIKFKPRC (Isovaleric acid-DTHFPCIKF-Lys[PEG11-Palm]-PRC-NH2) [Compd ID 6]           FPN IC50          nM                  17
